- experimental-protocol: qHTS RealTime-Glo MT Cell Viability Assay in HEK293 cells - 8 hour (AID 1224887); further: nearly all actives have a fitted effect of over 50% in size
- details: RealTime-Glo luminescence; series mostly up to 76.8 µM
- Excerpt: U.S. Tox21 Program National Center for Advancing Translational Sciences [NCATS] NIH Chemical Genomics Center [NCGC] U.S. Environmental Protection Agency [EPA] National Institutes of Environmental Health Sciences [NIEHS] National Toxicology Program [NTP] U.S. Food and Drug Administration [FDA] Tox21 Assay Overview: Measure of cell viability is critical in the cell-base assay. Analysis of cell viability is necessary for the characterization of cell responses to cytotoxic drugs and environmental stress. […]
Records with an inconclusive call do not appear. The source made the active and inactive calls. The call rests on the fitted dose curve; in most records, active means well fitted cell-killing curve with a large enough effect in the repeat runs; inconclusive means weak or mixed curves, or effect the other way; inactive means flat fitted curve, though single readings scatter.
Outcomes: active, inactive

[
  {
    "molecule": "O=[N+]([O-])c1ccc(O)c2ncccc12",
    "class-assignment": "inactive"
  },
  {
    "molecule": "NC(=O)C1CO1 (configuration not stated)",
    "class-assignment": "inactive"
  },
  {
    "molecule": "C/C=C/C(=O)OCC(C)C",
    "class-assignment": "inactive"
  },
  {
    "molecule": "CC/C=C(\\C)C=O",
    "class-assignment": "inactive"
  },
  {
    "molecule": "Cc1ccc(Cl)c(N)c1Cl",
    "class-assignment": "inactive"
  },
  {
    "molecule": "C=Cc1ccc(O)c(OC)c1",
    "class-assignment": "inactive"
  },
  {
    "molecule": "Oc1ccc(Cl)cc1C1CCCC1",
    "class-assignment": "active"
  }
]

* * *

- experimental-protocol: A CellTox Green Cytotoxicity Assay to monitor cytotoxicity in HepG2 cells - 32 hour (AID 1224883); further: nearly all actives have a fitted effect of over 50% in size
- details: CellTox Green fluorescence; series mostly up to 76.8 µM
- Excerpt: National Center for Advancing Translational Sciences [NCATS] NIH Chemical Genomics Center [NCGC] U.S. Environmental Protection Agency [EPA] National Institutes of Environmental Health Sciences [NIEHS] National Toxicology Program [NTP] Cell-based models are critical for drug discovery. […] Viable cells produce no appreciable increases in fluorescence. Therefore, the fluorescence signal produced by the binding interaction with dead cell DNA is proportional to cytotoxicity. […]
Inconclusive results are not listed. Calls of active or inactive are those of the source. Calls follow the shape of the dose curve; as a rule, active = well fitted activation curve with a large enough effect in the repeat runs; inconclusive = weak or mixed curves; inactive = flat fitted curve, though single readings scatter.
Outcomes: active, inactive

[
  {
    "molecule": "NC(=O)c1ccccc1Cl",
    "class-assignment": "inactive"
  },
  {
    "molecule": "CC(Cc1ccc(O)c(O)c1)C(C)Cc1ccc(O)c(O)c1 (stereo not given)",
    "class-assignment": "active"
  },
  {
    "molecule": "C=CCc1cc(S(=O)(=O)c2ccc(O)c(CC=C)c2)ccc1O",
    "class-assignment": "inactive"
  },
  {
    "molecule": "COc1cc(OC)nc(NC(=O)NS(=O)(=O)Nc2ccccc2C(=O)N(C)C)n1",
    "class-assignment": "inactive"
  },
  {
    "molecule": "COCCC(=O)OC",
    "class-assignment": "inactive"
  }
]

* * *

- experimental-protocol: qHTS assay to test for compound auto fluorescence at 590 nm (red) in HepG2 cell free culture (AID 720684); further: on the % scale 0 is the no-effect control and ±100 the full control effect
- details: cell-free medium autofluorescence, red 540/590 nm; series mostly up to 46 µM
The source made the active and inactive calls. The call rests on the fitted dose curve; in most records, active means well fitted curve in the direction sought with a large enough effect in the repeat runs; inconclusive means weak or mixed curves; inactive means flat fitted curve, though single readings scatter.

[
  {
    "compound-smiles": "CC/C=C\\C/C=C\\C/C=C\\C/C=C\\C/C=C\\C/C=C\\CCC(=O)O",
    "outcome": "inactive"
  },
  {
    "compound-smiles": "CCC[C@@H]1C[C@@H](C(=O)N[C@@H]([C@H]2O[C@H](SC)[C@H](OP(=O)(O)O)[C@@H](O)[C@H]2O)[C@H](C)Cl)N(C)C1",
    "outcome": "inactive"
  },
  {
    "compound-smiles": "CC1=C(/C=C/C(C)=C/C=C/C(C)=C\\C(=O)O)C(C)(C)CCC1",
    "outcome": "inactive"
  },
  {
    "compound-smiles": "N[C@@H](Cc1cnc[nH]1)C(=O)O",
    "outcome": "inactive"
  }
]

* * *

- experimental-system: Cytochrome P450 2D6 (Homo sapiens) (UniProt P10635)
- Sequence (P10635 whole entry, looked up): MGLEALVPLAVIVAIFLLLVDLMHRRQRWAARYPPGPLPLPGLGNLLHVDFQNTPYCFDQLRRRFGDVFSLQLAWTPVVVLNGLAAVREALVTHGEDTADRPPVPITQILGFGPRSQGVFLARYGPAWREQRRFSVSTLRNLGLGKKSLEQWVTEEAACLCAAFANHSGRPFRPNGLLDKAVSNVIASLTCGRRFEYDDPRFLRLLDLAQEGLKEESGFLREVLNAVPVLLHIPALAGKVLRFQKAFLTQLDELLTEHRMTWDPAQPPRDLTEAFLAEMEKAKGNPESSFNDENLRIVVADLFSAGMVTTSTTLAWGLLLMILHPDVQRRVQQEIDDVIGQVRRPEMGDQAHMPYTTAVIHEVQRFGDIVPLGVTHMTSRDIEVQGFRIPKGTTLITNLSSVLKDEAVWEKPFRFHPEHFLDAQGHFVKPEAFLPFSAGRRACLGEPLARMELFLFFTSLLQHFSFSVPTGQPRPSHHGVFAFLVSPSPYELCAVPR
- experimental-protocol: Cytochrome P450 Family 2 Subfamily D Member 6 (CYP2D6) small molecule antagonists: luciferase reporter qHTS assay (AID 1671196); further: nearly all actives have a fitted effect of over 50% in size
- details: P450-Glo CYP2D6 enzyme assay, luciferin luminescence, 1 h; series mostly up to 115 µM
Results filed as inconclusive are left out. Calls of active or inactive are those of the source. Calls follow the shape of the dose curve; as a rule, active = well fitted inhibition curve with a large enough effect in the repeat runs; inconclusive = weak or mixed curves; inactive = no such curve, though single readings can be large or run the other way.
Outcomes: class 1 = active, class 0 = inactive

[
  {
    "compound": "CCCCCCCCCCCCN1CCCC1=O",
    "class-assignment": "class 0"
  },
  {
    "compound": "CCOc1ccc([N+](=O)[O-])cc1",
    "class-assignment": "class 1"
  },
  {
    "compound": "CCOC(=O)C1=NN(c2ccc(Cl)cc2Cl)C(C)(C(=O)OCC)C1 (configuration not stated)",
    "class-assignment": "class 1"
  },
  {
    "compound": "CCCCCCCCCCCCCCCCCCNC(=O)OC1CCN(C(=O)OC[C@H](COC(=O)N(Cc2cccc[n+]2CC)C(=O)c2ccccc2OC)OC)CC1",
    "class-assignment": "class 1"
  },
  {
    "compound": "CC(=O)Nc1ccc(N=Nc2cc(C)ccc2O)cc1",
    "class-assignment": "class 1"
  },
  {
    "compound": "Cc1ccc(C2OC[C@@H]3OC(c4ccc(C)cc4)O[C@H]([C@H](O)CO)[C@@H]3O2)cc1 (some centres not stated)",
    "class-assignment": "class 0"
  },
  {
    "compound": "CC(CC(C)(C)C)CC(C)(C)CC(C)(C)C (configuration not stated)",
    "class-assignment": "class 0"
  }
]

* * *

- experimental-protocol: qHTS RealTime-Glo MT Cell Viability Assay in HEK293 cells - 40 hour (AID 1224874); further: on the % scale 0 is the no-effect control and ±100 the full control effect; nearly all actives have a fitted effect of over 50% in size
- details: RealTime-Glo luminescence; hits give low values
Inconclusive results are not listed.
This section presents compounds with their documented max response values.
measurement-name: max response (%)

[
  {
    "compound": "Cc1ccc2nc(-c3ccc(N)cc3)sc2c1S(=O)(=O)O",
    "unit-symbol": "%",
    "number": -21.6
  },
  {
    "compound": "NCc1ccco1",
    "unit-symbol": "%",
    "number": 18.6
  },
  {
    "compound": "CC(C)(C)c1cc(CCC(=O)OCCSCCOC(=O)CCc2cc(C(C)(C)C)c(O)c(C(C)(C)C)c2)cc(C(C)(C)C)c1O",
    "unit-symbol": "%",
    "number": 2.76
  },
  {
    "compound": "CCSCC",
    "unit-symbol": "%",
    "number": 8.26
  },
  {
    "compound": "CCCC(C)C=O (stereo not given)",
    "unit-symbol": "%",
    "number": 0.0424
  }
]

* * *

- experimental-system: Nuclear receptor ROR-gamma (Homo sapiens)
- experimental-protocol: qHTS assay to identify small molecule antagonists of the retinoid-related orphan receptor gamma (ROR-gamma) signaling pathway (AID 1159521; further: nearly all actives have a fitted effect of over 50% in size)
- details: Tet-on RORgamma CHO cells, RORE-luciferase, 16 h; series mostly up to 92.4 µM
Inconclusive results are not listed. Calls of active or inactive are those of the source. Calls follow the shape of the dose curve; as a rule, active = well fitted inhibition curve with a large enough effect in the repeat runs; inconclusive = weak or mixed curves, or effect the other way; inactive = no such curve, though single readings can be large or run the other way.
Outcomes: active, inactive

[
  {
    "compound": "Cc1cc(Br)ccc1NC(=O)CCl",
    "class-assignment": "active"
  },
  {
    "compound": "CCN(CCC#N)c1ccc(N=Nc2ccc([N+](=O)[O-])cc2)cc1",
    "class-assignment": "inactive"
  },
  {
    "compound": "COc1cc([C@@H]2c3cc4c(cc3[C@@H](O[C@@H]3O[C@@H]5CO[C@@H](C)O[C@H]5[C@H](O)[C@H]3O)[C@H]3COC(=O)[C@H]23)OCO4)cc(OC)c1O",
    "class-assignment": "active"
  },
  {
    "compound": "CC(=O)CC(N)=O",
    "class-assignment": "inactive"
  },
  {
    "compound": "Clc1ccc2c(Cl)ccnc2c1",
    "class-assignment": "inactive"
  },
  {
    "compound": "Oc1ccc(C2(c3ccc(O)c(C4CCCCC4)c3)CCCCC2)cc1C1CCCCC1",
    "class-assignment": "active"
  },
  {
    "compound": "COc1c(Br)cc(Br)c(C)c1Br",
    "class-assignment": "inactive"
  },
  {
    "compound": "CC1=C(/C=C/C(C)=C/C=C/C(C)=C\\C(=O)O)C(C)(C)CCC1",
    "class-assignment": "inactive"
  },
  {
    "compound": "O=C1C=CC(=O)N1c1cccc(N2C(=O)C=CC2=O)c1",
    "class-assignment": "active"
  },
  {
    "compound": "ClC(c1ccccc1)(c1ccccc1)c1ccccc1",
    "class-assignment": "inactive"
  },
  {
    "compound": "C=C(C)CCO",
    "class-assignment": "inactive"
  },
  {
    "compound": "O=C(CCN1CCC(c2ccccc2)C1)c1ccc2c(c1)OCCO2 (stereo unspecified)",
    "class-assignment": "active"
  },
  {
    "compound": "CC(C)(c1ccc(Oc2ccc(N)cc2)cc1)c1ccc(Oc2ccc(N)cc2)cc1",
    "class-assignment": "active"
  },
  {
    "compound": "c1ccc2occc2c1",
    "class-assignment": "inactive"
  },
  {
    "compound": "c1ccc2c(c1)-c1ccc3ccc4cccc5cc-2c1c3c45",
    "class-assignment": "inactive"
  },
  {
    "compound": "NCc1cccc(C2CCN(C(=O)c3ccc(C#Cc4ccccc4F)o3)CC2)c1",
    "class-assignment": "active"
  },
  {
    "compound": "Cc1ccc2n[nH]nc2c1",
    "class-assignment": "inactive"
  },
  {
    "compound": "Oc1ccc(Cl)cc1C1CCCC1",
    "class-assignment": "inactive"
  },
  {
    "compound": "C[C@H]1O[C@@H](O[C@H]2CC[C@@]3(C)[C@H](CC[C@@H]4[C@@H]3C[C@@H](O)[C@]3(C)[C@@H](C5=CC(=O)OC5)CC[C@]43O)C2)C[C@H](O)[C@@H]1O[C@H]1C[C@H](O)[C@H](O[C@H]2C[C@H](O)[C@H](O[C@@H]3O[C@H](CO)[C@@H](O)[C@H](O)[C@H]3O)[C@@H](C)O2)[C@@H](C)O1",
    "class-assignment": "inactive"
  },
  {
    "compound": "C=C1C(CCl)(CCl)C2(Cl)C(Cl)C(Cl)C1(Cl)C2(Cl)Cl (stereo unspecified)",
    "class-assignment": "active"
  },
  {
    "compound": "C=Cc1ccncc1",
    "class-assignment": "inactive"
  },
  {
    "compound": "CCCCCCCCOC(=O)c1cc(O)c(O)c(O)c1",
    "class-assignment": "active"
  },
  {
    "compound": "C=Cc1ccc(O)c(OC)c1",
    "class-assignment": "inactive"
  },
  {
    "compound": "CCN(CC)c1ccc(C=O)cc1",
    "class-assignment": "inactive"
  },
  {
    "compound": "CC1(C)[C@H](C(=O)OCc2cccc(Oc3ccccc3)c2)[C@@H]1C=C(Cl)Cl",
    "class-assignment": "inactive"
  },
  {
    "compound": "CC(C)(C)C1=CC(=O)C(C(C)(C)C)=CC1=O",
    "class-assignment": "active"
  },
  {
    "compound": "CCN(CC)c1ccc(N=Nc2ccccc2)cc1",
    "class-assignment": "inactive"
  },
  {
    "compound": "Cc1c[nH]c(=O)[nH]c1=O",
    "class-assignment": "inactive"
  },
  {
    "compound": "CCCCCCCCSCc1cc(C)c(O)c(CSCCCCCCCC)c1",
    "class-assignment": "active"
  },
  {
    "compound": "CN(C)CCOc1ccc(/C(=C(/CCCl)c2ccccc2)c2ccccc2)cc1",
    "class-assignment": "active"
  },
  {
    "compound": "O=C(Nc1ccccc1)c1cc(Cl)ccc1O",
    "class-assignment": "active"
  }
]
